Value source: the supplement of paper PMC9112550

Tested on: Escherichia coli TOP10;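 further: peptides expressed intracellularly from a pBAD plasmid library in pooled LB shake-flask culture, induced with 0.3% L-arabinose, DNA abundance read by NGS, three biological replicates, DESeq2 with apeglm shrinkage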
Assay: shrunken log2 fold change of peptide-encoding DNA abundance (4.5 h post-induction vs induction); higher = less antimicrobial activity (less host growth inhibition)
Conditions: time post-induction: 4.5 h; library: site-saturation at positions 5, 18, 19, 20
In this section we review reported shrunken log2 fold change values for a set of sequences.
Provide a numeric answer; units are not to be included.

Some sequences with known shrunken log2 fold change results, for comparison:
query_sequence=RRIRFRPPRLPRPRPRPWLMPRP observed_measurement=-0.58
query_sequence=RRIRVRPPRLPRPRPRPVLCPRP observed_measurement=0.0228
query_sequence=RRIRCRPPRLPRPRPRPHQNPRP observed_measurement=-0.276
query_sequence=RRIRMRPPRLPRPRPRPLSMPRP observed_measurement=-0.289
query_sequence=RRIRIRPPRLPRPRPRPKFEPRP observed_measurement=-0.361
query_sequence=RRIRRRPPRLPRPRPRPQYSPRP observed_measurement=-0.108
query_sequence=RRIRWRPPRLPRPRPRPNIAPRP observed_measurement=-0.121
query_sequence=RRIRRRPPRLPRPRPRPCCAPRP observed_measurement=0.372

Any idea what its shrunken log2 fold change is? The sequence is RRIRIRPPRLPRPRPRPDSQPRP -0.0342

Any idea what its shrunken log2 fold change is? The sequence is RRIRRRPPRLPRPRPRPVKYPRP -0.167

Any idea what its shrunken log2 fold change is? The sequence is RRIRQRPPRLPRPRPRPETGPRP 0.0496
